assay: inhibitors of TNFa-induced NFkB p65 translocation, primary screen, imaging, HUVEC, MLSMR starter and 10KST1 sets (AID 438); details: HUVEC TNFa-induced p65 nuclear translocation; measured here: nuclei count (cytotoxicity indicator), at 2.08 µM;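 further: compound added about 3h40 before a 20 min TNFalpha stimulation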
Property: cell count
Write no unit; give the number alone.

Entry under review: C=CCOC(=O)C1=C(C)NC(SCC(=O)N(CC)CC)=C(C#N)C1c1ccccc1 (stereo unspecified) . Reported cell count? 348

Can you handle Cc1cc(C)n2c3c(c(C#N)c2n1)CC(C)(C)OC3 next? 670

Likewise for N=c1c[n+](N2CCOCC2)[n-]o1 ? 605

Try this molecule too: CCN(CC)CCN1C(=O)C(=O)/C(=C(/O)c2ccc(Cl)cc2)C1c1ccncc1 (stereo unspecified) 358

Param item: CCOc1cccc(-c2nnc3sc(-c4ccco4)nn23)c1 668

Try this molecule too: CCC(=O)Oc1ccc(/C(CC)=C(\CC)c2ccc(OC(=O)CC)cc2)cc1 550

Where do these numbers come from? They come from PubChem BioAssay.
